Ref: the RNAGym collection of RNA variant scans (doi:10.1073/pnas.2313332121)

B1: TPR t1 (parent)
chain: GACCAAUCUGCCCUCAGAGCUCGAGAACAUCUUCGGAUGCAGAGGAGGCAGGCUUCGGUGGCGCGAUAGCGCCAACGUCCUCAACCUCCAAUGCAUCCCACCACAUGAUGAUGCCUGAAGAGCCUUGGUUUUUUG

Variants of: B1
TEST_NAME: polymerase ribozyme fitness, log enrichment relative to wild type (log ratio); higher = more active; in vitro selection for triplet polymerase activity

# SEQUENCE_INPUT, polymerase ribozyme fitness (log ratio)
measured = [
    ("GACCAAUCUGCCCUCAGAGCUCGAGAACAUCUUCGGAUGCAGAGGAGGCAGGCUUCGGUGGCGCGAUAGCGCCAACGUCCUCAACCUCCAAUGCAUCCGACCACAUGAUCAUGCCUGAAGAGCCUUGGUUUUUUG [C99G G110C]", -7.23),
    ("GACCAAUCUGCCCACAGAGCUCGAGAACAUCUUCGGAUGCAGAGGAGGCAGGCUUCGGUGGCGCGAUAGCGUCAACGUCCUCAACCUCCAAUUCAUCCCACCACAUGAUGAUGCCUGAAGAGCCUUGGUUUUAUU [U14A C72U G93U U133A G135U]", -4.17),
    ("GACCAAUCUGCCCUCAGAGCUCGAGAACAUCUUCGGAUGCAGAGGAGGGAGGCUUCGGUGGCGCGAUAGCGCCAACGUCCUCAACCUCCAAUGGAUCCCACCACAUGAUGAUGCCUGAAGAGCCUUGGUUUUUUG [C49G C94G]", -1.92),
    ("GACCAAGCUGCCCUCAGAGCUCGAGAACCUCUUCGGAUGCAGAGGAGGCAGGCUUCGGUGGCGCGAUAGCGACAACGUCCUAAACCUCCAAUGCAUCCCACCACAUGAUGAUGCCUGAACAGCCUUGGUUUUUUG [U7G A29C C72A C82A G120C]", -0.586),
    ("GACCAAUCUGCCCUCAGAGCUCGAGAACAUCUUCGGAUGCAGAGGAGGCAGGCUUCGGGGGCGCGAUAGCGCCAACGUCCUCAACCUCCAAUGCAUCCCACCACAUGAUGAUGCCUGAAGAGCUUUGGUUUUUUG [U59G C124U]", 1.25),
    ("GACCAAUCUGCGCUCAGAGGUCGAGAACAUCUUCGGAUGCAGAGGAGGCAGGCUUUGGUGGCGCGAUAGCGCCAACGUUCUUAACCUCCAUUGCAUCCCACCACAUCAUGAUGCCUAAAGAGCCUUGGUUUUUUG [C12G C20G C56U C79U C82U A91U G107C G117A]", -3.77),
    ("GACCAAUCUGCCAUCAGAGCUCGAGAACAUCUUCGGAAGCAGAGGAGGCAGGUUUCGGUGGCGCGAUAGCGCCAACGUCCUCAACCUCAAAUGCAUCCCACCACAUGAUGAUGCCUGAAGAGCCUUGGUUUUUUG [C13A U38A C53U C89A]", -4.39),
    ("GACCAAUCUGCCCUCAGAGCUCGAGAACAUCUUCGGAUGCAGAGUAGGCAGGCUUCGGUGGCGCGAUAGCGCCGACGUCCUCAACCUCCAAUGCAUCCCACCACAUGAUGAUGCCUGAAGAGCCUUGGUUUAUUG [G45U A74G U132A]", -2.04),
    ("GACCAAUCUGCCCUCAGAGCUCGAGAACAUCUUCGGAUGCAGAGGAGGCAGGCUUGGGUGGCGCGAUAGCGCCAACGUCCUCAACCUCCAAUGCAUCCAACCACAUGAUGAUGCCUGAAGAGCCUUGGUUUUUUG [C56G C99A]", -6.98),
    ("GACCAAUCUGCCCUCAGAGCUCGAGAACAUCUUCGGAUGCAGAGGAGGCAGGCUUCGGUGGCGCGAUAGCGCCAACGUCCUCAACCUCCAAUGCAUCCCACCACAUGAUGAUGCCUGAAAAGUCUUGGUUUUUUG [G120A C123U]", 1.96),
    ("GAACAAUCUGCCCUCAGAGCUCGAGAACAUCUUCGGAUGAAGAGGAGGCAGGCUUCGGUGGCGCGAUAGCGCCAACGUCCUCAACCUCCACUGCAUCCCACCACAUGAUGAUGCCUCAUGAGCCUUGGUUUUUUG [C3A C40A A91C G117C A119U]", -5.83),
    ("GACCAAUCUGCCCUCAGAGCUCGAGAACAUCUUCGGUUGCAGAGGAGGCAGGCUUCGGUGGCCCGAUAGCGCCAACGUCCUCAACCUCCAAUGCCUCCCACCACAUGAUGAUGCCUGAAGAGCCUUGGUUUUUUG [A37U G63C A95C]", -1.93),
    ("GACCAAUCUGCCCUCAGAGCUCGAGAACAUCUUCGGAUGCAGAGGAGGCAGGCUUCGGUGGCGCGAUAGCGCCAACGUCCUCAACCUCCAAUGCAUCCCACCACAUGAUGAUUCCUGACGAUCCUUGGUUUUUUG [G113U A119C G122U]", -4.35),
    ("GACCAAUCUGCCCUCAGAGCUCGAGAACAUCUUCGGAUGCAGAGGAGGCAGGCGUCGGUGGCGCGAUAGCGCCAACGUCUUCAACCUCCAAUGCAUCCCACCACAUGAUGAUGCCUGAAGAGCCUUGGUUUUAUG [U54G C80U U133A]", -0.863),
    ("GACCAAUCUGCCCUCAGAGCUCGAGAAUAUCUUCGGAUGAAGAGGAGGCAGGCUUCGGUGGCGCGAUAGCGCCAACGUCCUCAACCUCCAAUGCAUCCCACCACAUGAUGAUGCCUGAAGAGCUUUGGUAUUUUG [C28U C40A C124U U130A]", -3.36),
    ("GACCAAUCUGCCCUCAGAACUCGAGAACAUCUUCGGAUGCAGAGGAGGCAGGCUUCGGUGGCGCGAUAGCGCCAACGUCCUCGACCUCCAAUGCAUCCCACCACAUGAUGAUGGCUGAAGACCCUUGGUUUUUUG [G19A A83G C114G G122C]", -4.41),
    ("GACCAAUCUACCCUCAGAGCUCGAGAACAUCUUCGGAUGCAGAGGAUGCAGGCUUUGGUGGCGCGAUAGCGCCAACGUCCUAGACCUCCAAUGCAUCCCACCACAUGAUGAUGCCUGAAGAGCCUUGGUUUUUUG [G10A G47U C56U C82A A83G]", -2.51),
    ("GACCAAUCUGCCCUCAGAGCUCGAGAACAUCUUCGGAUGCAGAGGAGGCAGGCUUCGGUGGCGCGAUAGCGCCAACGGCCUCAACCUUCAUUGCUUCCCACCACAUGAUGAUGCCUGAAGAGCCUUGGUUUUUUG [U78G C88U A91U A95U]", -3.4),
    ("GACCAAUCUGCCCUCAGAGCUCGAAAAAAUGUUCGGAUGCAGAGGAGGCAGGCUUCGGUGGCUCGAUAGCGCCGACGUCCUCAACCUCCAAUGCAUCCUACCACAUGAUGAUGCCUGAAGAGCCUUGGUUUUUUG [G25A C28A C31G G63U A74G C99U]", -7.56),
    ("GACCCAUCUGCGCUCAGAGCUCGAGAACAUCUUCGGAUGCAGAGGAGGAAGGCUUCGGUGGCGCGAUAGCGCCAACGUCCUCCACCUCCAAUGCAUCCCACCACAUGAUGAUGCCUGAAGAGCCUUGGUUUUUUG [A5C C12G C49A A83C]", -0.122),
    ("GACCAAUCUGCCCUCAGAGCUCGAGAUCAUCUUCGGAUGCAGAGGAGGCAGGCUUCGGUGGCGCGAUAGCGCCAAUGUCCUCAACCUCCAAUGCAUCCCUCCACAUGAUGAUGCCUGAACAGCCUUGGUUUUUUG [A27U C76U A100U G120C]", -3.8),
    ("GACCAAUCUGCCCUCAGAGCUCGAGAACAUCUUCGGAUGCAGAGGAGGCAGGCUUCGGUGGCGCGAUAGCGCCAACGUCCUCAACCUCCCACGCAUCCCACAACAUGAUGAUGCCUGAACAGCCUUGGUUUAUUG [A90C U92C C102A G120C U132A]", -4.27),
    ("GACCAAUCUGCCCUCAGAGCUCGAGAACAUCUUCGGAUGUAGAGGAGGCAGGCUUCGGUGGCGCGAUAGCUCCAACGUCCUCAACCUCCAAUGCAUCCCACCACAUGAUGAUGCUUGAAGAGCCGUGGUUUUCUG [C40U G71U C115U U125G U133C]", -0.893),
    ("GACCAAUCUGCCCUCAGAGCUCGAGAACAUCUUCGGAUGCAGAGGAGGAAGGAUUCGGUGGCGCGAUAGCGCCAACGUCCUCAACCUCCAAUGCAUCCCACCACAUGAUGAUGCCCGAAGAGCCUUGGUUUUUUG [C49A C53A U116C]", -1.16),
    ("GACCAGUCCGCCGUCAGAGCUCGAGAACAUCUUCGGAUGCAGAGGAGGCAGGCUUCGGUGCCGCGAUAGCGCCAACGUCCUCAACCUCUUAUGUAUCCCACCACUUGAUGAUGCCUGAAGGGCCUUGGUUUUUUG [A6G U9C C13G G61C C89U A90U C94U A105U A121G]", -5.89),
    ("GACCAAUCUGCCCUCAGAGCUCCAGAACAUCUUCGGAUGCAGAGGAGGCAGGCUUCGGUAGCGCGAUAGCGCCAACCUCCUCAACCUCCAAUGCAUCGCACCACAUGAUGAUGCCUGAUGAGCCUUGGUUUUUUG [G23C G60A G77C C98G A119U]", -7.44),
    ("GACCAAUCUGGCCUCAGAGCUCGAGAACAUCUUCGUAUGCAGAGGAGGCAGGCUUGGGUGGCGCGAUAGCGCCAACGUCCUUAACCUCCAAUGCAUCCCACCACAUGAUGAUGCCUGAAGAGCCUUGGUUUUUUG [C11G G36U C56G C82U]", -0.948),
]
